# TARGET_SYSTEM: T1, Rluc-ADGRG2-ΔGPS-β F838A (mouse, UniProt Q8CJ12-3 38-995, F838A)
# T1 construct: ADGRG2 (GPR64), mouse, ADGRG2-ΔGPS-β: the entire ECD removed; source: HEK293, transfected, on cells; not shown: Rluc, N-terminal, kept
# T1 sequence (Q8CJ12 other isoform, or with tags, fused parts or gaps F838A | F838A | F838A F838A): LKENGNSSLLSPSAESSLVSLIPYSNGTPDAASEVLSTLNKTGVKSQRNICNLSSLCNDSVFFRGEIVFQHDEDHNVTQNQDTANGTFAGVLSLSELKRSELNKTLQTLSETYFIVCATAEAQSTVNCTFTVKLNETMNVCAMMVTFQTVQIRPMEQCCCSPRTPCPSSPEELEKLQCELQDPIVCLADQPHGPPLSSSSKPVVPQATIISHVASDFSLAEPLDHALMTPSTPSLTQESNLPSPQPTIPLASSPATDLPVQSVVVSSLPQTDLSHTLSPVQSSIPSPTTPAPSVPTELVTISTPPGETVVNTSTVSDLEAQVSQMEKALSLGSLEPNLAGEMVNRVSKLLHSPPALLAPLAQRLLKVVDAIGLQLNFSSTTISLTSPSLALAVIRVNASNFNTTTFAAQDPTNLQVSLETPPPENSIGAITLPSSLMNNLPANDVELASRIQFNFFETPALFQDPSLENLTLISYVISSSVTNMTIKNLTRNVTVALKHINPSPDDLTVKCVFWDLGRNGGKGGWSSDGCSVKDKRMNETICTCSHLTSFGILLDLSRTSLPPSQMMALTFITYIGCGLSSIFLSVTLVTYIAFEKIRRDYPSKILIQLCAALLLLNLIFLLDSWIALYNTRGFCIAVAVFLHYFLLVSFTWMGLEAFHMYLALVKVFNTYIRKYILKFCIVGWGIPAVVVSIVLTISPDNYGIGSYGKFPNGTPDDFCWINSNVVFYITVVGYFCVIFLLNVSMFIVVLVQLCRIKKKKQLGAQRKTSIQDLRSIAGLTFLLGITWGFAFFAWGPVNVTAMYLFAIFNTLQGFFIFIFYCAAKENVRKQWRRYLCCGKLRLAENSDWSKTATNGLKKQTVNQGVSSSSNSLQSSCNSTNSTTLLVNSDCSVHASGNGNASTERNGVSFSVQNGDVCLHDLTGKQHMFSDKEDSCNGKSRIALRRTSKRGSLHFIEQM
# METHOD_DESCRIPTION: FRET or BRET; HEK293 cells transfected with Rluc-ADGRG2-ΔGPS-β WT or mutants, stimulated by increasing concentrations of FITC-conjugated VPM-p15; saturation curves fitted with GraphPad; each experiment repeated 6 times
# PROTOCOL_CONDITIONS: one partner purified
Non-standard residues stand in square brackets, D forms with d. Primed or numbered codes have the meaning given here. No end group written: not given here. Phe(4-Me) = Cc1ccc(C[C@H](N)C(=O)O)cc1; FITC′ = not defined here
PROPERTY_MEASURED: EC50 (nM)
Use nM as the unit, but write only the number.

[Q] Suppose we examine the binder VS[Phe(4-Me)]GILLDLSRTSLP-{FITC′} [FITC-conjugated VPM-p15 (ADGRG2 Stachel peptide p15 T1V/F3Phe(4-Me))] ; what EC50 value has been reported?
[A] 767
